# testSystem: Beta-secretase 1 (Homo sapiens) (UniProt P56817)
# Sequence (P56817 whole entry): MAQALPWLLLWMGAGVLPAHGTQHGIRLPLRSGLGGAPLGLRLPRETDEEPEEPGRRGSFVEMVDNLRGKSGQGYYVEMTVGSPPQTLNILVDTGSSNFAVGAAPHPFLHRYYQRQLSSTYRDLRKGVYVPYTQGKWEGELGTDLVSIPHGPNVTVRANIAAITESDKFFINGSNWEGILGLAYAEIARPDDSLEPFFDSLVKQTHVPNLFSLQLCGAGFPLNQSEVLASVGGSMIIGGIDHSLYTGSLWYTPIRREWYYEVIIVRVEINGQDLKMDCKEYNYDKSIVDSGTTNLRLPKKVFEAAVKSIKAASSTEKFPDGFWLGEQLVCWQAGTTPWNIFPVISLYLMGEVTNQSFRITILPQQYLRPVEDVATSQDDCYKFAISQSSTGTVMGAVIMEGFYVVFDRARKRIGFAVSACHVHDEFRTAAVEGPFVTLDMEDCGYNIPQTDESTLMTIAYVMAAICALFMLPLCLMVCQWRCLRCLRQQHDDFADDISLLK
# testMethodNotes: Inhibition of human recombinant BACE1 by FRET-based assay
Active and inactive are the calls of the source. No cut-off for these calls is given here.
experimentalReadout: Activity

O=C1CCCN2[C@@H](CC1)C[C@]13CN4CCCC/C=C\CC[C@](O)(C=C(c5nccc6c5[nH]c5c(O)cccc56)C1CC4)[C@H]23 (stereo partly drawn) = inactive
O=C1CCCN2[C@@H]3[C@@]45CN6CCCC/C=C\CC[C@@]3(C=C(c3nccc7c3[nH]c3ccccc37)[C@@H]4CC6)O[C@]2(CC1)C5 = inactive
O=CC1=C[C@]23CC/C=C\CCCCN4CC[C@@H]1[C@]1(C[C@@H]5/C=C\CCC[C@@H](O2)N5[C@H]13)C4 = inactive

###

# testSystem: Beta-secretase 1 (Homo sapiens) (UniProt P56817)
# testMethodNotes: Inhibition of human recombinant BACE1 by FRET-based assay
Activity calls are given as the source filed them. No cut-off for these calls is given here.
experimentalReadout: Activity

Below are worked cases with known answers.
O=C1CCCN2[C@@H](CC1)C[C@]13CN4CCCC/C=C\CC[C@](O)(C=C(c5nccc6c5[nH]c5ccccc56)C1CC4)[C@H]23 (stereo partly drawn) [MANZAMINE E] = inactive
C1=C\CC[C@]23CN4CCCC/C=C\CC[C@@]5(O[C@H]5[C@@H](c5nccc6c5[nH]c5ccccc56)[C@@H]2CC4)[C@@H]3NCCCC/1 = inactive
Oc1cccc2c1[nH]c1c([C@H]3[C@@H]4CCN5CCCC/C=C\CC[C@@]6(O[C@@H]36)[C@@H]3NCCCC/C=C\CC[C@@]34C5)nccc12 = inactive
O=C1CCCN2[C@@H](CC1)C[C@]13CN4CCCC/C=C\CC[C@](O)(C=C(c5nccc6c5[nH]c5ccc(O)cc56)[C@@H]1CC4)[C@H]23 = inactive
O=C1CCCN2[C@@H]3[C@@]45CN6CCCC/C=C\CC[C@@]3(C=C(c3nccc7c3[nH]c3ccc(O)cc37)[C@@H]4CC6)O[C@]2(CC1)C5 = inactive

Sample Oc1ccc2[nH]c3c(C4=C[C@@]5(O)CC/C=C\CCCCN6CC[C@@H]4[C@]4(C[C@@H]7/C=C\CCCCN7[C@H]45)C6)nccc3c2c1 [MANZAMINE Y] ; Activity observed: inactive

Sample C1=C(c2nccc3c2[nH]c2ccccc23)[C@@H]2CCN3CCCC/C=C\CC[C@]14O[C@@]15/C=C\CCCCN1[C@@H]4[C@]2(C3)C5 [12,34-OXAMANZAMINE A] ; Activity observed: inactive

Sample `O=C1CC[C@H]2C[C@]34CN5CCCC/C=C\CC[C@@]6(C=C(c7nccc8c7[nH]c7ccccc78)[C@@H]3CC5)O[C@H](CC1)N2[C@H]46` ; Activity observed: inactive

###

# testSystem: Glycogen synthase kinase-3 beta (Homo sapiens) (UniProt P49841)
# Sequence (P49841 whole entry, looked up): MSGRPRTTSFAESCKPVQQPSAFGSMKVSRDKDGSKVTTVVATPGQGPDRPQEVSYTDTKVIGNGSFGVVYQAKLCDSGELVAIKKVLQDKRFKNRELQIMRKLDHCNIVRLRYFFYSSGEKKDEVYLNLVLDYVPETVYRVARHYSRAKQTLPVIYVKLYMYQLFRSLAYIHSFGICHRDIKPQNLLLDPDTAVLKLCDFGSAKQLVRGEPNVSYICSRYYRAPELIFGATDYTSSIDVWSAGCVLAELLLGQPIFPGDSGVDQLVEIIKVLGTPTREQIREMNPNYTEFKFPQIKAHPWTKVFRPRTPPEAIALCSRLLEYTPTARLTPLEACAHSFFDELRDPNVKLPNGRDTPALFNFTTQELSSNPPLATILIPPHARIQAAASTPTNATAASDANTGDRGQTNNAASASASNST
# testMethodNotes: Inhibition of human recombinant GSK3-beta assessed as incorporation of [33P]gammaATP into G2S peptide at 25 uM
Each entry below lists one item and its recorded inhibition value.

Oc1cccc2c1[nH]c1c(C3=C[C@@]4(O)CC/C=C\CCCCN5CC[C@@H]3[C@]3(CC6/C=C\CCCCN6[C@H]34)C5)nccc12 (some centres not stated) = 86.7%
Oc1ccc2[nH]c3c(C4=C[C@@]5(O)CC/C=C\CCCCN6CC[C@@H]4[C@]4(C[C@@H]7/C=C\CCCCN7[C@H]45)C6)nccc3c2c1 [MANZAMINE Y] = 74.3%
O=C1CCCN2[C@@H](CC1)C[C@]13CN4CCCC/C=C\CC[C@](O)(C=C(c5nccc6c5[nH]c5c(O)cccc56)C1CC4)[C@H]23 (some centres not stated) [MANZAMINE F] = 29.9%
O=C1CCCN2[C@@H](CC1)C[C@]13CN4CCCC/C=C\CC[C@](O)(C=C(c5nccc6c5[nH]c5ccccc56)C1CC4)[C@H]23 (some centres not stated) [MANZAMINE E] = 53.6%

Sample `O=CC1=C[C@@]2(O)CC/C=C\CCCCN3CC[C@@H]1[C@]1(C[C@@H]4/C=C\CCCCN4[C@H]12)C3` ; inhibition observed: 0%

Sample O[C@]12C=C(c3nccc4c3[nH]c3ccccc34)[C@@H]3CCN(CCCC/C=C\CC1)C[C@@]31C[C@@H]3/C=C\CCCCN3[C@H]12 [MANZAMINE A] ; inhibition observed: 73.2%

Sample O[C@@H]1CCCN2CC[C@@H]1O[C@@]13CC[C@@H](OC[C@]45CN6CCCC/C=C\CC[C@](O)(C=C(c7nccc8c7[nH]c7ccccc78)[C@@H]4CC6)[C@H]25)[C@@H](O)CCN1[C@@H]1[C@]2(CN4CCCC/C=C\CC[C@]1(O)C=C(c1nccc5c1[nH]c1ccccc15)[C@@H]2CC4)C3 [NEO-KAULUAMINE] ; inhibition observed: 82%
